Test: Metabolic stability in rat liver S9 fraction assessed as parent compound remaining at 100 uM preincubated for 5 mins followed by glutathione addition measured after 2 hrs by LC-MS/MS analysis
Type: ADME, subcellular
Conditions: read-out: Stability

| INPUT SMILES | remaining at 2 h, 100 µM (%) |
| --- | --- |
| CN[C@@H]1[C@H](O)[C@H](NC)[C@H]2O[C@]3(O)[C@H](O[C@@H]2[C@H]1O)O[C@H](C)C[C@H]3NC(=O)Cc1cc(Cl)c(C)cn1 | 12.9 |
| CN[C@@H]1[C@H](O)[C@H](NC)[C@H]2O[C@]3(O)[C@H](O[C@@H]2[C@H]1O)O[C@H](C)C[C@H]3NC(=O)Cc1cc(Cl)c(F)cn1 | 98.6 |
| CN[C@@H]1[C@H](O)[C@H](NC)[C@H]2O[C@]3(O)[C@H](O[C@@H]2[C@H]1O)O[C@H](C)C[C@H]3NC(=O)Cc1ccc(O)cn1 | 98.6 |
| CN[C@@H]1[C@H](O)[C@H](NC)[C@H]2O[C@]3(O)[C@H](O[C@@H]2[C@H]1O)O[C@H](C)C[C@H]3NC(=O)Cc1ccc(F)cn1 | 96.6 |
| CC(=O)Nc1ccc(O)cc1 | 43 |
| CN[C@@H]1[C@H](O)[C@H](NC)[C@H]2O[C@]3(O)[C@H](O[C@@H]2[C@H]1O)O[C@H](C)C[C@H]3NC(=O)Cc1cc(Cl)ccn1 | 71.9 |
| CN[C@@H]1[C@H](O)[C@H](NC)[C@H]2O[C@]3(O)[C@H](O[C@@H]2[C@H]1O)O[C@H](C)C[C@H]3NC(=O)Cc1ccccn1 | 99.8 |
| CN[C@@H]1[C@H](O)[C@H](NC)[C@H]2O[C@]3(O)[C@H](O[C@@H]2[C@H]1O)O[C@H](C)C[C@H]3NC(=O)Cc1cc(Cl)c(OC)cn1 | 81.1 |
| CN[C@@H]1[C@H](O)[C@H](NC)[C@H]2O[C@]3(O)[C@H](O[C@@H]2[C@H]1O)O[C@H](C)C[C@H]3NC(=O)Cc1ccc(Cl)cn1 | 99.4 |
